- MEASURED_TARGET: HA of influenza B virus B/Malaysia/2506/2004 (live virus) (influenza B virus B/Malaysia/2506/2004)
- MEASUREMENT_PROTOCOL: cell-based or functional assay
REPORTED_METRIC: VNA titers in µg/ml (*assay was done with 25 TCIDs)
In your response, put the unit directly after the numeric value.

Field: example entries. Status: answers known.
Record CR8071 (antibody, V domains shown) VH: QVQLVQSGAEVKKPGASVRVSCRASGYIFTESGITWVRQAPGQGLEWMGWISGYSGDTKYAQKLQGRVTMTKDTSTTTAYMELRSLRYDDTAVYYCARDVQYSGSYLGAYYFDYWSPGTLVTVSS VL: QSVLTQPPSASGTPGQRVTISCSGSSSNIGTNYVYWYQQFPGTAPKLLIYRSYQRPSGVPDRFSGSKSGSSASLAISGLQSEDEADYYCATWDDSLDGWVFGGGTKLTVLR . Reported VNA titers in µg/ml (*assay was done with 25 TCIDs): 14.9 µg/mL

Record CR8032 (antibody, V domains shown) VH: EVQLVESGGGLVQPGRSLRLSCAASGFSFDEYIMHWVRQAPGKGLEWVAGINWKGNFMGYADSVQGRFTISRDNGKNSLYLQMNSLRAEDTALYYCAKDRLESSAMDILEGGTFDIWGQGTMVTVSS VL: QSALTQPASVSGSPGQSITISCTGTRRDVGDYKYVSWYQQHPGKAPKLMIYDVSNRPSGVSNRFSGSKSGTTASLTISGLQAEDEADYYCSSYTTSNTRVFGGGTKLTVL . Reported VNA titers in µg/ml (*assay was done with 25 TCIDs): 3.88 µg/mL

Record CR11035 (antibody, V domains shown) VH: QVQLVQSGAEVKKPGSSVKVSCKTSGYAFNGYGISWVRQAPGQGLEWVAWINTYKVNTHYAQNLRGRVTVSIDTSTTTAYMELRSLRSDDTAVYYCARDWGGPFGNAFDFWGQGTMVTVSS VL: DIQMTQSPSSLAASIGDSVTITCRASQSVGSYLNWYQQKPGKAPKLLIYGASNVQSGVPSRFSGSESGTESTLTINNLQPEDSATYYCQQSYSTPRTFGQGTKVEIK . Reported VNA titers in µg/ml (*assay was done with 25 TCIDs): 0.53 µg/mL

Record CR11038 (antibody, V domains shown) VH: EVQLVESGAEVKKPGASVKVSCKASGYAFTSYYLHWVRQAPGQGLEWMGIMNPHGGSTTYAQKFQGRVTMTRDTSTSTVYMELSSLRSEDTAVYYCARESPDSSGYPGYYGMDVWGQGTTVTVSS VL: SYELTQPPSASGTPGQRVTMSCSGSRSNIGSNPVSWFQQLPGMVPKLLIYTNDQRPSGVPDRFSGSKSGPSASLAISGLQSEDEADYYCAAWDDSLKGWVFGGGTKLTVL . Reported VNA titers in µg/ml (*assay was done with 25 TCIDs): 2.1 µg/mL

Then this binder:
Record CR8033 (antibody, V domains shown) VH: EVQLVETGGGLVQPGRSLRLSCAASGFSFDEYTMHWVRQAPGKGLEWVAGINWKGNFMGYADSVQGRFTISRDNGKNSLYLQMNSLRAEDTALYYCAKDRLESSAMDILEGGTFDIWGQGTMVT VL: EIVLTQSPGTLSLSPGERATLSCRASQSVSSSYLAWYQQKPGQAPRLLIYGASTRATGIPARFSGSGSGTDFTLTISRLEPEDLAVYYCQQYGSSPWTFGQGTKVEIK . Reported VNA titers in µg/ml (*assay was done with 25 TCIDs): 0.88 µg/mL

Value source: patent US20160002318A1
